All figures here come from the supplement of paper PMC9170038.

# Tested on: MS2 coat protein
# MEASUREMENT PROTOCOL: apparent KD of MS2 coat protein; higher = weaker reporter binding
# SETUP CONDITIONS: Eterna round: R107; input ligand: none
VALUE KIND: apparent KD of MS2 coat protein (nM)
The figure you give is taken to be in nM; do not add the unit.

item_sequence="UAAUACCAGGUCAACGUACCAGGUGAUCAACGAGGACCGGUACGGCCGCCACUCGAAACAUGAGGAUCACCCAUGUAAGACCUGG [|T'-M'-Trp-Ms2|_Design 2_ML2]" value_observed=134
item_sequence="GUCCUCGUGUCCGGUUUAGCGCAAAGCGCACGAGGACCGGUACGGCCGCCACUCGAAACAUGAGGAUCACCCAUGUGAAGAAUAA [Design 1]" value_observed=14.6
item_sequence="AACAUGAGGAUCACCCAUGUCGGGCCGGUGCGAGGACCGGUACGGCCGCCACUCGAGACAUGAGGAUCACCCAUGUAGGGCGAGA [Exclusion Tryptophan A GF22]" value_observed=79.7
item_sequence="AACAUGAGGAUCACCCAUGUCUGAACUGAAGGAGCGCUAAAUAAGGCAGGUAGGUCGCGGAAUUUUGUGUGCAUAUGCAUAUGGG [9.I]" value_observed=30.3

# input Give its apparent KD of MS2 coat protein value. Item: CUAAGAGCGGCGGCCGCCACUGGUAACCGAGAGGAGGAGCUUCUGAACAUGAGGAUCACCCAUGUCAGGACCGGGUCGUCUUAGA [Same State - Tryptophan B]
# output 13.8

# input Give its apparent KD of MS2 coat protein value. Item: UACAUAUGCCGAAGGAGCGCGAGAUGCAAAGCAUCAAUCCUUACAUGAGGAUCACCCAUGUCGCAGGUAGGUCGCGGCAUAUGUU [ArgBX 2]
# output 33.6
